# System: DU-145
# PROCEDURE TEXT: Inhibition of cells growth by colorimetric (SRB) assay, DU-145
# TEST PARAMETERS: Homo sapiens, DU-145, 48 h, read-out: DU-145 GI50, SRB assay, 48 hours exposure
Label criterion met when GI50 < 2000 nM; otherwise criterion not met.

Reference set (3 entries):
MOLECULE	ASSIGNED CATEGORY
CSc1nccc(-c2c3c(Cl)ccnc3n3c(N)nccc23)n1.Cl	criterion met
Nc1nccc(-c2c3cccnc3n3c(N)nccc23)n1 [Deoxyvariolin 4, deoxyvariolin B, reference compound]	criterion met
Cl.Nc1nccc(-c2c3c(Cl)ccnc3n3c(N)nccc23)n1	criterion met

Dear colleague, could you confirm whether GI50 of "CSc1nccc(-c2c3ccc(C)nc3n3c(N)nccc23)n1" falls below 2000 nM? Thanks.
criterion met

Dear colleague, could you confirm whether GI50 of "CSc1nccc(-c2c3cccnc3n3c(N)nccc23)n1.Cl" falls below 2000 nM? Thanks.
criterion met

Dear colleague, could you confirm whether GI50 of "CSc1nccc(-c2c3cccnc3n3c(NC(C)=O)nccc23)n1" falls below 2000 nM? Thanks.
criterion met

* * *

# System: LNCaP
# PROCEDURE TEXT: Inhibition of cells growth by colorimetric (SRB) assay, LNCaP
# TEST PARAMETERS: Homo sapiens, LNCaP, 48 h, read-out: GI50 LN-caP, SRB assay, 48 hours exposure
Label YES when GI50 < 1 µM; otherwise NO.

Reference set (6 entries):
COMPOUND	ASSIGNED CATEGORY
Nc1nccc(-c2c3c(F)ccnc3n3c(N)nccc23)n1	YES
Nc1nccc2c(-c3ccnc(O)n3)c3cccnc3n12	YES
Nc1nccc(-c2c3c(O)ccnc3n3c(N)nccc23)n1 [Variolin B1, variolin B, reference compound]	YES
Nc1nccc2c(-c3ccncn3)c3c(OCc4ccccc4)ccnc3n12	NO
Cl.Nc1nccc(-c2c3cc4ccccc4nc3n3c(N)nccc23)n1	YES
COc1nccc(-c2c3c(OC)ccnc3n3c(N)nccc23)n1	NO

Dear colleague, could you confirm whether GI50 of "Nc1nccc(-c2c3c(Cl)ccnc3n3c(N)nccc23)n1" falls below 1 µM? Thanks.
NO

Dear colleague, could you confirm whether GI50 of "Cl.Nc1nccc(-c2c3cccnc3n3c(N)nccc23)n1" falls below 1 µM? Thanks.
YES

Dear colleague, could you confirm whether GI50 of "Nc1nccc(-c2c3cc(Cl)cnc3n3c(N)nccc23)n1" falls below 1 µM? Thanks.
NO

Dear colleague, could you confirm whether GI50 of "COc1nccc(-c2c3c(Cl)ccnc3n3c(N)nccc23)n1" falls below 1 µM? Thanks.
YES

Dear colleague, could you confirm whether GI50 of "Nc1nccc2c(-c3cccc([N+](=O)[O-])c3)c3cccnc3n12" falls below 1 µM? Thanks.
NO

* * *

# System: PANC-1
# PROCEDURE TEXT: Inhibition of cells growth by colorimetric (SRB) assay, PANC-1
# TEST PARAMETERS: read-out: GI50 PANC-1; SRB assay, 48 hours exposure
READOUT TYPE: log10 of GI50 (log10 of the value in µM)
Scale: log10; quantity: GI50; unit before log: µM

Solved entries:
COMPOUND	REPORTED MEASUREMENT
COc1ccnc2c1c(-c1ccnc(N)n1)c1ccnc(N)n12.Cl	0.25
Cc1ccc2c(-c3ccnc(N)n3)c3ccnc(N)n3c2n1	0.59

Record log10 of GI50 for all entries; do not skip any.
1. Cl.Nc1nccc(-c2c3c(N)ccnc3n3c(N)nccc23)n1
2. Cl.Nc1nccc2c(-c3ccncn3)c3c(O)ccnc3n12
3. Cl.Nc1nccc(-c2c3cc4ccccc4nc3n3c(N)nccc23)n1
4. Nc1nccc(-c2c3cc4ccccc4nc3n3c(N)nccc23)n1 [Compound 19a]

-0.05
-0.83
0.95
0.54

Record log10 of GI50 for all entries; do not skip any.
1. CCOc1nccc(-c2c3cccnc3n3c(N)nccc23)n1
2. COc1nccc(-c2c3cccnc3n3c(N)nccc23)n1
3. Nc1nccc2c(-c3ccncn3)c3c(O)ccnc3n12
4. Cc1ccc2c(-c3ccnc(N)n3)c3ccnc(N)n3c2n1.Cl

0.06
-0.19
0.69
0.23

* * *

# System: K-562
# PROCEDURE TEXT: Inhibition of cells growth by colorimetric (SRB) assay, K-562
# TEST PARAMETERS: read-out: K-562 LC50; SRB assay, 48 hours exposure
READOUT TYPE: CC50

Look up CC50: "CSc1nccc(-c2c3c(O)ccnc3n3c(N)nccc23)n1"
≥ 30.8 µM

* * *

Please provide measured CC50 for the entries that follow.
# System: HeLa-APL
# PROCEDURE TEXT: Inhibition of cells growth by colorimetric (SRB) assay, HeLa-APL
# TEST PARAMETERS: read-out: HELA-APL LC50; SRB assay, 48 hours exposure
One number for each entry, in nM.

CHEMICAL STRING	READOUT TYPE	REPORTED MEASUREMENT
CSc1nccc(-c2c3c(O)ccnc3n3c(N)nccc23)n1	CC50	38.2

Let us move to another entry and its CC50.
Look up CC50: "CSc1nccc(-c2c3c(O)ccnc3n3c(N)nccc23)n1.Cl"
1850

* * *

# Tested on: HeLa-APL
# PROCEDURE TEXT: Inhibition of cells growth by colorimetric (SRB) assay, HeLa-APL
# TEST PARAMETERS: SRB assay, 48 hours exposure
# Experimental: The finality of these assays is to interrupt the growth of a “in vitro” tumor cell culture by means a continued exhibition of the cells to the sample to be testing. […] Cells are seeded in 96 well microtiter plates, at 5×10^3 cells per well in aliquots of 195 μl medium, and they are allowed to attach to the plate surface by growing in drug free medium for 18 hours. […] Optical densities are read on a automated spectrophotometric plate reader at a single wavelength of 490 nm. […]
Please provide measured HELA-APL TGI for the entries that follow.
One number for each entry.

Record HELA-APL TGI for all entries; do not skip any.
1. CSc1nccc(-c2c3c(O)ccnc3n3c(N)nccc23)n1 [Compound 95]
2. CSc1nccc(-c2c3ccc(C)nc3n3c(N)nccc23)n1 [Compound 43]
3. CSc1nccc(-c2c3cc4ccccc4nc3n3c(N)nccc23)n1 [Compound 18a]
4. Nc1nccc(-c2c3cccnc3n3c(N)nccc23)n1 [Deoxyvariolin 4, deoxyvariolin B, reference compound]
5. CSc1nccc(-c2c3cccnc3n3c(N)nccc23)n1.Cl [Compound 68]
6. Cl.Nc1nccc(-c2c3c(O)ccnc3n3c(N)nccc23)n1 [Compound 54]
7. CSc1nccc(-c2c3cccnc3n3c(NC(C)=O)nccc23)n1 [Compound 69]

["1.31E−08", "1.75E−07", "8.31E−07", "1.45E−07", "5.68E−08", "1.28E−07", "2.45E−08"]

Record HELA-APL TGI for all entries; do not skip any.
1. CSc1nccc(-c2c3cccnc3n3c(N(C(C)=O)C(C)=O)nccc23)n1 [Compound 26]
2. CSc1nccc(-c2c3c(O)ccnc3n3c(N)nccc23)n1.Cl [Compound 97]
3. CSc1nccc(-c2c3c(N)ccnc3n3c(N)nccc23)n1.Cl [Compound 93]
4. CS(=O)(=O)c1nccc(-c2c3cccnc3n3c(N)nccc23)n1 [Compound 73]
5. CSc1nccc(-c2c3c(Cl)ccnc3n3c(N)nccc23)n1.Cl [Compound 108]
6. Cl.Nc1nccc(-c2c3c(Cl)ccnc3n3c(N)nccc23)n1 [Compound 83]

["8.64E−09", "1.77E−07", "6.03E−09", "7.23E−08", "2.04E−07", "1.11E−07"]

* * *

Please provide measured GI50 for the entries that follow.
# Tested on: SK-OV-3
# PROCEDURE TEXT: Inhibition of cells growth by colorimetric (SRB) assay, SK-OV-3
# TEST PARAMETERS: Homo sapiens, SK-OV-3, 48 h, read-out: GI50 SKOV-3, SRB assay, 48 hours exposure
One number for each entry, in µM.

CHEMICAL STRING	READOUT TYPE	REPORTED MEASUREMENT
Nc1nccc2c(-c3ccnc(Oc4ccccc4)n3)c3cccnc3n12	GI50	0.784

Let us move to another entry and its GI50.
Look up GI50: "COc1nccc(-c2c3cccnc3n3c(N)nccc23)n1"
1.22

* * *

# System: IGROV-ET
# PROCEDURE TEXT: Inhibition of cells growth by colorimetric (SRB) assay, IGROV-ET
# TEST PARAMETERS: read-out: IGROV-ET LC50; SRB assay, 48 hours exposure
READOUT TYPE: CC50

Look up CC50: "CSc1nccc(-c2c3c(O)ccnc3n3c(N)nccc23)n1"
≥ 30.8 µM

* * *

# Tested on: A-549
# PROCEDURE TEXT: Inhibition of cells growth by colorimetric (SRB) assay, A-549
# TEST PARAMETERS: read-out: LC50 A-549; SRB assay, 48 hours exposure
READOUT TYPE: CC50 (µM)
Answers are plain numbers, in µM.

Solved entries:
COMPOUND	REPORTED MEASUREMENT
Nc1nccc(-c2c3cc4ccccc4nc3n3c(N)nccc23)n1 [Compound 19a]	18
Cl.Nc1nccc(-c2c3c(N)ccnc3n3c(N)nccc23)n1	8.29
Cc1ccc2c(-c3ccnc(N)n3)c3ccnc(N)n3c2n1	17.5

Let us move to another entry and its CC50.
Look up CC50: "COc1ccnc2c1c(-c1ccnc(N)n1)c1ccnc(N)n12.Cl"
26.3
